target: UniProtKB P15260; assay: biochemical; conditions: read-out: ka
Starred links: 1 amine or outer side, 2 acyl side, 3 side chain; linkers in the order of their positions; H or OH if unused. Positions of bridges follow the written chain, without caps; N, C: chain ends. Non-standard residues stand in square brackets, D forms with d. Residues, ends and D or L forms follow the SMILES beside them. ACHC(1S,2S) = O=C([C@H]1CCCC[C@@H]1N[*:1])[*:2]; X1 = O=C([C@@H]1CCC[C@H]1N[*:1])[*:2]; X2 = O=C([C@H]1CCC[C@@H]1N[*:1])[*:2]
Field: kon. Provide a value for each of the molecules that follow.
Answers are plain numbers, in M⁻¹ s⁻¹.

Some entries whose results are on file:
# input What value of kon has been reported for the following molecule? CC(C)[C@@H]1NC(=O)CNC(=O)[C@H](Cc2ccccc2)NC(=O)[C@@H](Cc2ccc(O)cc2)NC(=O)CSC[C@H](C(=O)NCC(N)=O)NC(=O)[C@H]([C@@H](C)O)NC(=O)[C@H](CCCNC(=N)N)NC(=O)[C@H](CC(N)=O)NC(=O)[C@H](Cc2ccc(O)cc2)NC(=O)[C@H](Cc2ccccc2)NC(=O)[C@@H]2CCC[C@H]2NC(=O)[C@H]2CCC[C@@H]2NC1=O [I1-6] ({CH2CO}-[dY]FGV[X2][X1]FYNRT[dC]G-NH2; thioether N-12)
# output 920000

# input What value of kon has been reported for the following molecule? CC(C)C[C@@H]1NC(=O)[C@H](CC(N)=O)NC(=O)[C@H](Cc2ccc(O)cc2)NC(=O)[C@H](CCCNC(=N)N)NC(=O)[C@@H]2CCCN2C(=O)[C@@H](Cc2ccc(O)cc2)NC(=O)CSC[C@H](C(=O)NCC(N)=O)NC(=O)[C@H](CC(N)=O)NC(=O)[C@@H]2CCC[C@H]2NC(=O)[C@H](Cc2ccccc2)NC(=O)[C@H](CCCNC(=N)N)NC(=O)[C@@H]2CCCN2C(=O)[C@H](CO)NC(=O)[C@H](C)NC(=O)CNC(=O)[C@H]2CCC[C@@H]2NC1=O [I2] ({CH2CO}-[dY]PRYNL[X2]GASPRF[X1]N[dC]G-NH2; thioether N-16)
# output 1.98e+06

# input What value of kon has been reported for the following molecule? CC(C)[C@@H]1NC(=O)CNC(=O)[C@H](Cc2ccccc2)NC(=O)[C@@H](Cc2ccc(O)cc2)NC(=O)CSC[C@H](C(=O)NCC(N)=O)NC(=O)[C@H]([C@@H](C)O)NC(=O)[C@H](CCCNC(=N)N)NC(=O)[C@H](CC(N)=O)NC(=O)[C@H](Cc2ccc(O)cc2)NC(=O)[C@H](Cc2ccccc2)NC(=O)[C@@H]2CCC[C@H]2NC(=O)[C@H](CCCNC(=N)N)NC1=O [I1-1] ({CH2CO}-[dY]FGVR[X1]FYNRT[dC]G-NH2; thioether N-12)
# output 1.74e+06

# input What value of kon has been reported for the following molecule? CC(C)C[C@@H]1NC(=O)CNC(=O)[C@H](C(C)C)NC(=O)[C@@H](Cc2ccc(O)cc2)NC(=O)CSC[C@H](C(=O)NCC(N)=O)NC(=O)[C@H]([C@@H](C)O)NC(=O)[C@H](CCCNC(=N)N)NC(=O)[C@H](CC(N)=O)NC(=O)[C@H](CC(C)C)NC(=O)[C@H](CO)NC(=O)[C@@H]2CCC[C@H]2NC(=O)[C@H](CC(N)=O)NC1=O [I1-3] ({CH2CO}-[dY]VGLN[X1]SLNRT[dC]G-NH2; thioether N-12)
# output 1.41e+06

# input What value of kon has been reported for the following molecule? CC(C)[C@@H]1NC(=O)CNC(=O)[C@H](Cc2ccccc2)NC(=O)[C@@H](Cc2ccc(O)cc2)NC(=O)CSC[C@H](C(N)=O)NC(=O)[C@H]([C@@H](C)O)NC(=O)[C@H](CCCNC(=N)N)NC(=O)[C@H](CC(N)=O)NC(=O)[C@H](Cc2ccc(O)cc2)NC(=O)[C@H](Cc2ccccc2)NC(=O)[C@H](C)NC(=O)[C@H](CCCNC(=N)N)NC1=O [I1-1A] ({CH2CO}-[dY]FGVRAFYNRT[dC]-NH2; thioether N-12)
# output 20000

# ---- query molecule ----
# input What value of kon has been reported for the following molecule? CC(C)C[C@@H]1NC(=O)[C@H](C)NC(=O)[C@H](Cc2ccccc2)NC(=O)[C@@H](Cc2ccc(O)cc2)NC(=O)CSC[C@H](C(=O)NCC(N)=O)NC(=O)[C@H](CCCNC(=N)N)NC(=O)[C@H](CCCNC(=N)N)NC(=O)[C@H](CC(N)=O)NC(=O)[C@H]2CCCC[C@@H]2NC(=O)[C@H](CCCNC(=N)N)NC(=O)[C@@H]2CCC[C@H]2NC(=O)[C@H](CC(N)=O)NC1=O [I1-5] ({CH2CO}-[dY]FALN[X1]R[ACHC(1S,2S)]NRR[dC]G-NH2; thioether N-12)
# output 3.01e+06

Numbers sourced from patent US20230117920A1.
